// values below are reported IC50
- Tested on: MDA-MB-231, 4T1, MCF-7, T-47D, and HCC1954 cells
- Assay Text: MTT assay, summary over breast carcinoma cell lines
- Assay type: cell-based
- Measurement Conditions: Breast carcinoma cell, 24 and 48 h, all five cancer cell lines and all three hybrids together, read-out: IC50, range over breast carcinoma cell lines

> print(dat)
                                   compound                                    system   endpoint.value
1  O=C1CC(N2C(=O)C(=CC(Cl)=Cc3ccc([N+](=O)[O-])cc3)SC2=S)C(=O)N1c1ccc(Cl)cc1 (stereo not drawn) [Les-6294]  MDA-MB-231, 4T1, MCF-7, T-47D, and HCC1954 cells  1.37 to 21.9 µM

Query string: What value of measured IC50 is listed for O=C1CC(N2C(=O)C(=CC(Cl)=Cc3ccc([N+](=O)[O-])cc3)SC2=S)C(=O)N1c1ccc(Br)cc1 (stereo not drawn) [Les-6328] ?
Result string: 1.37 to 21.9 µM

Query string: What value of measured IC50 is listed for O=C1CC(N2C(=O)C(=CC(Cl)=Cc3ccc([N+](=O)[O-])cc3)SC2=S)C(=O)N1c1ccc(O)cc1 (stereo not drawn) [Les-6287] ?
Result string: 1.37 to 21.9 µM

* * *

// values below are reported IC50
- Test system: MCF-10A cells
- Assay Text: [3H]-thymidine incorporation assay
- Format: cell-based
- Measurement Conditions: Homo sapiens, 24 h, read-out: IC50 (M ± SD) in [3H]-thymidine assay (DNA synthesis)
Only the number, expressed in µM, is required.

Compound	System	Reading Unit	Endpoint Value
COc1cccc2c1C(=O)c1c(O)c3c(c(O)c1C2=O)C[C@@](O)(C(=O)CO)C[C@@H]3O[C@H]1C[C@H](N)[C@H](O)[C@H](C)O1 [Dox, doxorubicin, reference compound]	MCF-10A cells	µM	3.19

From here, focus on the item given below.
Query string: Missing value: IC50, MCF-10A cells, entry O=C1CC(N2C(=O)C(=CC(Cl)=Cc3ccc([N+](=O)[O-])cc3)SC2=S)C(=O)N1c1ccc(O)cc1 (centres unmarked) . Fill in?
Result string: 43.5

* * *

- System: MDA-MB-231 cells
- Assay Text: Clonogenic assay
- Type: cell-based, human
- Measurement Conditions: Homo sapiens; MDA-MB-231; 72 h exposure, 14 days culture; read-out: IC50 (M ± SD) in clonogenic assay
pIC50: −log10 of the molar value.
Endpoint Name: pIC50

Molecule	pIC50
COc1cccc2c1C(=O)c1c(O)c3c(c(O)c1C2=O)C[C@@](O)(C(=O)CO)C[C@@H]3O[C@H]1C[C@H](N)[C@H](O)[C@H](C)O1 [Dox, doxorubicin, reference compound]	6.38

[I] O=C1CC(N2C(=O)C(=CC(Cl)=Cc3ccc([N+](=O)[O-])cc3)SC2=S)C(=O)N1c1ccc(O)cc1 (stereo not shown) [Les-6287]
[II] O=C1CC(N2C(=O)C(=CC(Cl)=Cc3ccc([N+](=O)[O-])cc3)SC2=S)C(=O)N1c1ccc(Br)cc1 (stereo not shown) [Les-6328]
[III] O=C1CC(N2C(=O)C(=CC(Cl)=Cc3ccc([N+](=O)[O-])cc3)SC2=S)C(=O)N1c1ccc(Cl)cc1 (stereo not shown) [Les-6294]
Query string: // sort entries: pIC50, high to low Reply with the labels, ordered as the question asks.
Result string: I, III, II
